Values compiled from ChEMBL document CHEMBL1153510.

target: UniProt P24941; test: Inhibition of human CDK2/ Cyclin A catalytic subunit expressed in Sf9 insect cells assessed as histone H1 phosphorylation-associated depletion in ATP level by luminescence assay; details: read-out: IC50
Property measured: IC50 (µM)

{"Molecule": "Cc1ccc2[nH]cc(C(=O)C(=O)N3CCc4ccccc43)c2c1", "Recorded value": 951}
{"Molecule": "O=C(C(=O)N1CCc2ccccc21)c1c[nH]c2ccc(F)cc12", "Recorded value": 1160}
{"Molecule": "O=C(C(=O)N1CCc2cc(Cl)ccc21)c1c[nH]c2ccc(Cl)cc12", "Recorded value": 915}
{"Molecule": "c1ccc2c(c1)ccn2CCCCn1ccc2ccccc21", "Recorded value": 1030}
{"Molecule": "O=C(C(=O)N1CCc2cc(F)ccc21)c1c[nH]c2ccccc12", "Recorded value": 790}

[1] O=C(C(=O)N1CCc2ccccc21)c1c[nH]c2ccc(Cl)cc12
[2] Cc1ccc2[nH]cc(CCn3ccc4ccccc43)c2c1
[3] Fc1ccc2[nH]cc(CCn3ccc4ccccc43)c2c1
[Q] List from greatest to least IC50. Reply with the labels, ordered as the question asks.
[A] 1, 2, 3

[P] O=C(C(=O)N1CCc2ccccc21)c1c[nH]c2ccccc12
[Q] Clc1ccc2c(ccn2CCc2c[nH]c3ccccc23)c1
[R] c1ccc2c(c1)ccn2CCCCCCn1ccc2ccccc21
[Q] Order the entries by their reported IC50, beginning at the minimum. Reply with the labels, ordered as the question asks.
[A] Q, P, R
(Q: 430 µM, P: 760 µM, R: 1210 µM)

[P] Cc1ccc2c(ccn2CCc2c[nH]c3ccc(C)cc23)c1
[Q] Cc1ccc2c(ccn2CCc2c[nH]c3ccccc23)c1
[Q] Between these two entries, P and Q , state which has the higher IC50. # reply format: chosen label
[A] P

----------
molecular target: Cyclin-dependent kinase 4/cyclin D1 (Homo sapiens); assay: Inhibition of human CDK4/ Cyclin D1 catalytic subunit expressed in Sf9 insect cells assessed as GST-RB152 fusion protein phosphorylation-associated depletion in ATP level by luminescence assay
Sequence (P11802 whole entry, the tested form may be a part): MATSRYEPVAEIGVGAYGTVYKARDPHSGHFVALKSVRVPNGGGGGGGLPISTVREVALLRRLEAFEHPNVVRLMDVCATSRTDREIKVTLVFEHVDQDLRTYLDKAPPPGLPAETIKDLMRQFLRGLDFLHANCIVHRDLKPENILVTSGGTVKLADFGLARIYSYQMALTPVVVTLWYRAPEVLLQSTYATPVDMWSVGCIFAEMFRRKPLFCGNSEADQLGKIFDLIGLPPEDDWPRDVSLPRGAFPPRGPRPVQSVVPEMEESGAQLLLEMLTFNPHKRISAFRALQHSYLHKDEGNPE
Sequence (P24385 whole entry, further chain, the tested form may be a part): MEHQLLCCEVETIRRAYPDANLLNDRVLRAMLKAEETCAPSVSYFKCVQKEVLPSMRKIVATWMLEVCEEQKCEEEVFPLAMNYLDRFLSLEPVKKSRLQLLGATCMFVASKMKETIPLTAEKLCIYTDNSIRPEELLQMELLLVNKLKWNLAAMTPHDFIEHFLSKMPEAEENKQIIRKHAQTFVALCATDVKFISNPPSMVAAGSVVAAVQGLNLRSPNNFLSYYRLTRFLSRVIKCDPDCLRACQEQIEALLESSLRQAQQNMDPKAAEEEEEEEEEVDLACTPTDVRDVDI
Property measured: IC50 (µM)

Sample answers from the record:
{"Molecule": "O=C(C(=O)N1CCc2cc(Cl)ccc21)c1c[nH]c2ccc(Cl)cc12", "Target desc": "Cyclin-dependent kinase 4/cyclin D1 (Homo sapiens)", "Property measured": "IC50", "Recorded value": 43.5}
{"Molecule": "c1ccc2c(c1)ccn2CCCCCCn1ccc2ccccc21", "Target desc": "Cyclin-dependent kinase 4/cyclin D1 (Homo sapiens)", "Property measured": "IC50", "Recorded value": 106}
{"Molecule": "Fc1ccc2c(ccn2CCc2c[nH]c3ccc(F)cc23)c1", "Target desc": "Cyclin-dependent kinase 4/cyclin D1 (Homo sapiens)", "Property measured": "IC50", "Recorded value": 73}
{"Molecule": "c1ccc2c(c1)ccn2CCn1ccc2ccccc21", "Target desc": "Cyclin-dependent kinase 4/cyclin D1 (Homo sapiens)", "Property measured": "IC50", "Recorded value": 37}
{"Molecule": "Fc1ccc2c(ccn2CCc2c[nH]c3ccccc23)c1", "Target desc": "Cyclin-dependent kinase 4/cyclin D1 (Homo sapiens)", "Property measured": "IC50", "Recorded value": 95}
{"Molecule": "Cc1ccc2[nH]cc(C(=O)C(=O)N3CCc4ccccc43)c2c1", "Target desc": "Cyclin-dependent kinase 4/cyclin D1 (Homo sapiens)", "Property measured": "IC50", "Recorded value": 41.5}
{"Molecule": "O=C(C(=O)N1CCc2ccccc21)c1c[nH]c2ccc(Cl)cc12", "Target desc": "Cyclin-dependent kinase 4/cyclin D1 (Homo sapiens)", "Property measured": "IC50", "Recorded value": 96}
{"Molecule": "c1ccc2c(c1)ccn2CCCn1ccc2ccccc21", "Target desc": "Cyclin-dependent kinase 4/cyclin D1 (Homo sapiens)", "Property measured": "IC50", "Recorded value": 38}

[A] Cc1ccc2c(ccn2CCc2c[nH]c3ccc(C)cc23)c1
[B] O=C(C(=O)N1CCc2cc(Cl)ccc21)c1c[nH]c2ccccc12
[C] Cc1ccc2[nH]cc(CCn3ccc4ccccc43)c2c1
[Q] Order the entries by their reported IC50, beginning at the minimum. Reply with the labels, ordered as the question asks.
[A] A, B, C
